# protocolDetails: blockers of bacterial quorum-sensing reporter fluorescence – flow cytometry, SAR analogs, SAR follow-up (AID 1014);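 note: Staphylococcus aureus RN6390 with RNAIII-GFP reporter stimulated by AIP; bacteria incubated with compound for 3 hours at 37 °C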
# particulars: at 20 µM, stronger effect = higher value
Kindly state inhibition of mean fluorescence for each of the entries shown.
Write the answer as a number in %, unit excluded.

IN: Kindly indicate its recorded inhibition of mean fluorescence. Item: "CCOC(=O)c1cnc2c(OC)cccc2c1Nc1ccccc1C(=O)O"
OUT: -42.9

IN: Kindly indicate its recorded inhibition of mean fluorescence. Item: "O=C(O)c1ccccc1Nc1ccnc(N2CCOCC2)n1"
OUT: 5.6

IN: Kindly indicate its recorded inhibition of mean fluorescence. Item: "O=C1CS/C(=N\C(=O)N2c3ccccc3Sc3ccccc32)N1"
OUT: 91.4

IN: Kindly indicate its recorded inhibition of mean fluorescence. Item: O=C(NCC(c1cccnc1)N1CCN(c2ccc(F)cc2)CC1)c1cccs1 (centres undefined)
OUT: 20.1

IN: Kindly indicate its recorded inhibition of mean fluorescence. Item: "Cc1ccc(Nc2nc3c(S(=O)(=O)c4ccccc4)nnn3c3ccccc23)cc1"
OUT: -19

IN: Kindly indicate its recorded inhibition of mean fluorescence. Item: "Cc1ccc(C)c(S(=O)(=O)c2n[nH]n3c2nc(=O)c2sccc23)c1"
OUT: 35.2

IN: Kindly indicate its recorded inhibition of mean fluorescence. Item: O=C(O)c1ccccc1NC(c1ccccc1)c1ccc(Cl)cc1 (centres undefined)
OUT: 59.8

IN: Kindly indicate its recorded inhibition of mean fluorescence. Item: "CCc1ccc(Nc2nc3c(S(=O)(=O)c4ccc(Br)cc4)nnn3c3ccccc23)cc1"
OUT: -16.7

IN: Kindly indicate its recorded inhibition of mean fluorescence. Item: "N#Cc1c(NC(=O)CCN2C(=O)c3ccccc3C2=O)oc(-c2ccccc2)c1-c1ccccc1"
OUT: 19.7

IN: Kindly indicate its recorded inhibition of mean fluorescence. Item: "COc1cccc(Nc2c(F)c(F)c(F)c(F)c2C(=O)O)c1"
OUT: -12.9

IN: Kindly indicate its recorded inhibition of mean fluorescence. Item: "COc1ccc(S(=O)(=O)c2nnn3c2nc(Nc2ccc(C)cc2)c2ccccc23)cc1"
OUT: 8.2

IN: Kindly indicate its recorded inhibition of mean fluorescence. Item: "COc1ccc(S(=O)(=O)c2nnn3c2nc(Nc2cccc(C)c2)c2ccccc23)cc1"
OUT: -7.2

IN: Kindly indicate its recorded inhibition of mean fluorescence. Item: CC1CCCN(C(C(=O)Nc2ccc3c(c2)OCO3)c2ccccc2)C1 (centres undefined)
OUT: 81.5

IN: Kindly indicate its recorded inhibition of mean fluorescence. Item: COc1ccc(C(=O)NCC(c2cccnc2)N2CCN(c3ccccc3F)CC2)cc1OC (centres undefined)
OUT: -7.3
